Catalogue of IC50 readings, one per entry.
Target: Recombinant human HDAC1 (Homo sapiens, UniProt Q13547)
Construct: FLAG (C); made in house
Sequence (Q13547 whole entry): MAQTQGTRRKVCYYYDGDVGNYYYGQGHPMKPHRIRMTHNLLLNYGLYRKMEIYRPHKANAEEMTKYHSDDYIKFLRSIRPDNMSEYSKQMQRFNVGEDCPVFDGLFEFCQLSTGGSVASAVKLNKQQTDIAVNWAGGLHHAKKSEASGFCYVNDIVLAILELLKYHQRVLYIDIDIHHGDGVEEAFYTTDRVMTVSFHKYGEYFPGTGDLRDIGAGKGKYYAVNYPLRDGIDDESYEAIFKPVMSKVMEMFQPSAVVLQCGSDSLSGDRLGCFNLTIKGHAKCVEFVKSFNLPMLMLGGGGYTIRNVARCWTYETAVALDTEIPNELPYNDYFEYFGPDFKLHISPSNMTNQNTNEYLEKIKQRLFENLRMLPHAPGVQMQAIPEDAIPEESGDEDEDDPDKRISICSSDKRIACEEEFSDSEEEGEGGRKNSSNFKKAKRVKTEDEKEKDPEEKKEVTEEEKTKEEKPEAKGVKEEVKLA
Assay: Human HDAC enzyme inhibitor Fluor-de-Lys assay, HDAC1
Assay type: biochemical
Conditions: recombinant human HDAC1, Fluor-de-Lys assay
Give the number; nM is assumed, so skip it.

A selection of reference data follows.
CCC(=O)CCCCC[C@H](NC(=O)[C@H]1CC12CCN(C)CC2)c1[nH]c(-c2ccc(F)cc2)nc1Cl | 5.73
CCC(=O)CCCCC[C@H](NC(=O)[C@H]1CC12CCN(CC1CC1)CC2)c1ncc(-c2ccc3nc(C)ccc3c2)[nH]1 | 0.05
CCC(=O)CCCCC[C@H](NC(=O)[C@H]1CC12CCN(C)CC2)c1ncc(-c2ccc3ccc(C)nc3c2F)[nH]1 | 1.82

Note to self: IC50 of "CCC(=O)CCCCC[C@H](NC(=O)[C@H]1CC[C@@]2(CC1)OC(=O)c1ncccc12)c1ncc(-c2ccccc2)[nH]1" with Recombinant human HDAC1 (Homo sapiens, UniProt Q13547) was 92.7
